Growth Rate for assorted compounds
System: HEK-293T
experimental_details: Incucyte cell viability with HEK293T; also: unitless GR value; below 1 slowed growth and below 0 cell loss
Type: toxicity, cell-based
condition_info: human, 24 h, 10 µM, compound concentration 10 uM, replicate number 1
Square brackets hold non-standard residues; d marks the D form. Peptide text beside a SMILES is read from it.
I'd appreciate a reply containing only the number, no unit.

Some solved entries appear below for comparison.
{"columns": ["compound", "Growth Rate"],
 "data": [
  ["O=C(NCCc1cc(C(=O)NO)no1)c1ccc(Cl)c(Cl)c1", 0.99],
  ["CCNC(=O)NCCSC[C@H]1O[C@@H](n2cnc3c(N)ncnc32)[C@H](O)[C@@H]1O", 0.71],
  ["CC(=O)N[C@@H](Cc1ccc(O)cc1)C(=O)N[C@H](C(=O)N[C@@H](C)C(=O)N[C@@H](CC(=O)O)C(=O)COC(=O)c1c(C)cccc1C)C(C)C", 0.9],
  ["CC(=O)N[C@@H](C)C(=O)N[C@@H](CCC(=O)O)C(=O)N[C@H](C(=O)N[C@@H](C=O)CC(=O)O)C(C)C (Ac-AEV[dD]-aldehyde)", 0.78],
  ["Cc1cc(-c2ccccc2)cc(C(=O)NNS(=O)(=O)c2ccccc2)c1F", 0.49]
]}

Quick check: Growth Rate of "Cc1cc(C)c(CNC(=O)c2cc(Cl)c3c(c2C)O[C@@](C)([C@H]2CC[C@H](N(C)C)CC2)O3)c(=O)[nH]1" ?
0.77

---

System: Fibroblast
experimental_details: Incucyte cell viability with human fibroblast; also: unitless GR value; below 1 slowed growth and below 0 cell loss
Type: toxicity, cell-based
condition_info: 24 h, 10 µM, compound concentration 10 uM, replicate number 2
quantity_measured: Growth Rate
Give your answer as a number; write no unit.

Solved cases below.
{"columns": ["compound", "Growth Rate"],
 "data": [
  ["Cc1ccc(C(=O)Nc2ccc(S(=O)(=O)[O-])c3cc(S(=O)(=O)[O-])cc(S(=O)(=O)[O-])c23)cc1NC(=O)c1cccc(NC(=O)Nc2cccc(C(=O)Nc3cc(C(=O)Nc4ccc(S(=O)(=O)[O-])c5cc(S(=O)(=O)[O-])cc(S(=O)(=O)[O-])c45)ccc3C)c2)c1.[Na+].[Na+].[Na+].[Na+].[Na+].[Na+] [SURAMIN HEXASODIUM]", 0.59],
  ["CSc1cccc(Nc2ncc3cc(-c4c(Cl)cccc4Cl)c(=O)n(C)c3n2)c1", -0.52],
  ["CNC(=O)c1cnc(N2CCC[C@H](N)C2)nc1Nc1cc(C(C)C)nc(C(C)C)c1", 0.44],
  ["CN1CCN(c2cc(C(=O)Nc3ncc(SCc4cccc(C(F)(F)F)c4)s3)ccn2)CC1", 1],
  ["COc1cc(Nc2ncc(F)c(Nc3ccc4c(n3)N(COP(=O)([O-])[O-])C(=O)C(C)(C)O4)n2)cc(OC)c1OC.O.O.O.O.O.O.[Na+].[Na+] [FOSTAMATINIB DISODIUM]", -0.16]
]}

Return reported Growth Rate; argument: "Cc1ncsc1-c1ccc([C@H](C)NC(=O)[C@@H]2C[C@@H](O)CN2C(=O)[C@@H](NC(=O)CNC(=O)c2ccc(F)c(-c3ccc(N4C[C@@H](C)N(C)[C@@H](C)C4)c(NC(=O)c4c[nH]c(=O)cc4C(F)(F)F)c3)c2)C(C)(C)C)cc1"
0.89

Growth Rate for "Br.N#Cc1ccc(-c2csc(NN=C3CCCC3)n2)cc1" ?
0.62

Which value of Growth Rate has been reported for "CCS(=O)(=O)N1CC(CC#N)(n2cc(-c3ncnc4[nH]ccc34)cn2)C1" in the records?
0.42
